Could you please report measured binding affinity ratio (IC50 of standard peptide / IC50 of test peptide) for the items listed next?
target: HLA-A*3101 (human); test: competition with 125I-labelled probe peptide for purified HLA-A*3101, gel filtration; ratio to standard peptide 941.12

binder PLEEELPR (modifications not checked) [HBV POL 20 peptide PLEEELPR] , binding affinity ratio (IC50 of standard peptide / IC50 of test peptide) observed: -0.0009

binder PARDVLCLR (modifications not checked) [HBV X 11 peptide …] , binding affinity ratio (IC50 of standard peptide / IC50 of test peptide) observed: 0.01

binder PLSYQHFR (modifications not checked) [HBV POL 2 peptide PLSYQHFR] , binding affinity ratio (IC50 of standard peptide / IC50 of test peptide) observed: -0.0009
